tested on: human PTH1 receptor (Homo sapiens)
Sequence (Q03431 27-593): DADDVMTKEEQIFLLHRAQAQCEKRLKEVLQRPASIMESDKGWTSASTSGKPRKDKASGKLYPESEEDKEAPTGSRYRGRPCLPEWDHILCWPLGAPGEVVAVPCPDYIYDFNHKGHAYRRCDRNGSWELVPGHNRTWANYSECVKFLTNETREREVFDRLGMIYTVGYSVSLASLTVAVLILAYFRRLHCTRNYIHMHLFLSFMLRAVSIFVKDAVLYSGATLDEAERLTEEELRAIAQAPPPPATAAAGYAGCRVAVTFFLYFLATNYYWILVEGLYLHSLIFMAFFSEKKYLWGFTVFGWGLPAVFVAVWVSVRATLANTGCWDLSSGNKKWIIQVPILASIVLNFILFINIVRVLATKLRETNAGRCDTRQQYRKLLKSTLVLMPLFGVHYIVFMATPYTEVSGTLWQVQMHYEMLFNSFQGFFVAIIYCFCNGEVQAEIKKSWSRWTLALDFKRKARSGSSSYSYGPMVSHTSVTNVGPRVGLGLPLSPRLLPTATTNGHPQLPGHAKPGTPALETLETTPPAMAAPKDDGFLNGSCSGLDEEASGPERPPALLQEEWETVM
experiment notes: In vitro cAMP signal activity in HKRK-B7 cells (LLC-PK1 cells overexpressing the human PTH1 receptor)
Format: cell-based
conditions used: HKRK-B7 cells; compound at 1×10^−3 M; cAMP produced as percentage of that produced by hPTH(1-34) at 100 nM
Kindly apply the following: true if cAMP production activity (%) is less than 70%, false in every other case.

Task item: Is 70% strictly greater than the compound's reported cAMP production activity (%)? compound: CC(=O)NCc1cc(C)c(CCS(=O)(=O)N2CCC3(CC2)N=C(C2CCC(C)CC2)NC3=O)c(C)c1 (centres unmarked)
Reply: false

Task item: Find out if reported cAMP production activity (%) for CONC(=O)Cc1ccc(CCS(=O)(=O)N2CCC3(CC2)N=C(C2CCC(C)CC2)NC3=O)c(C)c1 (centres unmarked) is less than 70%
Reply: true

Task item: Please state whether cAMP production activity (%) is below 70% for `Cc1cc(N(C)C(N)=O)cc(C)c1CC1(S(=O)(=O)N2CCC3(CC2)N=C(c2cccc(OC(F)(F)F)c2)NC3=O)CC1`
Reply: true

Task item: Dear colleague, could you confirm whether cAMP production activity (%) of CCOCC1CCC(C2=NC3(CCN(S(=O)(=O)CCc4ccc(NC(C)=O)cc4C)CC3)C(=O)N2)CC1 (centres unmarked) falls below 70%? Thanks.
Reply: true

Task item: Could you please tell me whether cAMP production activity (%) recorded for `Cc1cc(C(=O)N(C)C)ccc1CCS(=O)(=O)N1CCC2(CC1)N=C(c1cccc(-c3ccccc3)c1)NC2=O` is less than 70%?
Reply: false

Task item: Report whether reported cAMP production activity (%) is lower than 70% (strictly) for `Cc1cc(N(C)C(=O)OC(C)(C)C)cc(C)c1CCS(=O)(=O)N1CCC2(CC1)N=C(C(C)(F)F)NC2=O`
Reply: true

Task item: Item `Cc1cc2ccc1CCS(=O)(=O)N1CCC3(CC1)N=C(NC3=O)c1cc(cc(C(F)(F)F)c1)OCCc1cn(nn1)CCCN(C)C2=O` : cAMP production activity (%) beneath 70%, strictly?
Reply: true

Task item: Bench note: check whether `O=C1NC(CCCCCCCCC(F)(F)F)=NC12CCN(S(=O)(=O)CCc1cccc3c1ccn3C[C@H](O)CO)CC2` shows cAMP production activity (%) below 70%
Reply: false

Task item: hey, is cAMP production activity (%) for `CN(C)CCNC(=O)Cc1ccc(CCS(=O)(=O)N2CCC3(CC2)N=C(C2CCCCC2)NC3=O)cc1` lower than 70% or not?
Reply: true

Task item: Is cAMP production activity (%) of `Cc1cc(C(=O)N2CCC(C)(O)CC2)cc(C)c1/C=C/[S@TB4](=O)(=O)N1CCC2(CC1)N=C(c1ccc(Cl)c(OC(F)(F)F)c1)NC2=O` strictly below 70%?
Reply: false

Task item: Is cAMP production activity (%) of `Cc1cc(C(=O)N2C[C@@H](O)[C@H](N(C)C)C2)cc(C)c1/C=C/S(=O)(=O)N1CCC2(CC1)N=C(c1cccc(C(F)(F)F)c1)NC2=O` strictly below 70%?
Reply: false

====

tested on: human PTH1 receptor (Homo sapiens, UniProt Q03431)
Sequence (Q03431 27-593): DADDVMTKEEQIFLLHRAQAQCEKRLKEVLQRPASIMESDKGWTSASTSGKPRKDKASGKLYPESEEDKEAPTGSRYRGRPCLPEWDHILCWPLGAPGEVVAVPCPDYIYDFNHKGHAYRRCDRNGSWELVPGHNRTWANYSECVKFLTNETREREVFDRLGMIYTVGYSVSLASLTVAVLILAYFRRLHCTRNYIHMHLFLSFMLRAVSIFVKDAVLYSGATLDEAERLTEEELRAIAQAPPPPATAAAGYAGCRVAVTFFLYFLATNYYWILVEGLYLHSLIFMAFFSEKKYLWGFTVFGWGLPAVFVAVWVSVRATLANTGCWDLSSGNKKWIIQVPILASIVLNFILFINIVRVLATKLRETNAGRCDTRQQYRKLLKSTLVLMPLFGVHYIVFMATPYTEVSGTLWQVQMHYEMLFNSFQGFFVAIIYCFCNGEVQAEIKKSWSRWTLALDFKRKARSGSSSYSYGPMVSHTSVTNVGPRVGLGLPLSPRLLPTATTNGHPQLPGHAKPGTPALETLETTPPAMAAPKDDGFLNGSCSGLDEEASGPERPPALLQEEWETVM
experiment notes: In vitro cAMP signal activity in HKRK-B7 cells (LLC-PK1 cells overexpressing the human PTH1 receptor)
Format: cell-based
conditions used: HKRK-B7 cells; compound at 1×10^−3 M; cAMP produced as percentage of that produced by hPTH(1-34) at 100 nM
Classify on cAMP production activity (%) using 0 (below 50%), 1 (50% to below 80%), 2 (80% or more)

Task item: Band for the recorded cAMP production activity (%) of O=C(C1CCc2ccccc2C1)N1CCCC(C2=NC3(CCN(S(=O)(=O)CCc4cccc5ccccc45)CC3)C(=O)N2)C1 (centres unmarked) [Compound 430] ?
Reply: 0

Task item: # bin lookup: classify O=C1NC(C2CCCCC2)=NC12CCN(S(=O)(=O)CCc1nccs1)CC2 [Compound 345] by its cAMP production activity (%)
Reply: 0

Task item: Lab log: Cc1cc(N2C(=O)CNC2=O)c(C)cc1/C=C/S(=O)(=O)N1CCC2(CC1)N=C(C1CCC(C)CC1)NC2=O (centres unmarked) [Compound 581] — assign cAMP production activity (%) category
Reply: 1

Task item: Classify this compound: CCCCCCCCCC1=NC2(CCN(S(=O)(=O)/C=C/c3c(C)cc(N(C)C(N)=O)cc3C)CC2)C(=O)N1 [Compound 692]
Reply: 2

Task item: Exercise: read the entry CON(C)C(=O)c1cc(C)c(/C=C/S(=O)(=O)N2CCC3(CC2)N=C(C2CCC(C)CC2)NC3=O)c(C)c1 (centres unmarked) [Compound 998] and state which class it falls under.
Reply: 2

Task item: Textbook exercise: identify the category of the compound given here, CN1CCCc2c(CCS(=O)(=O)N3CCC4(CC3)N=C(C3CCCCC3)NC4=O)cccc21 [Compound 747] , according to its measured value.
Reply: 1

Task item: Which band does CCCCC1CCC(C2=NC3(CCN(S(=O)(=O)/C=C/c4c(C)cc(C(=O)N5CCC(OCCOCCO)CC5)cc4C)CC3)C(=O)N2)CC1 (centres unmarked) [Compound 1009] fall in?
Reply: 1

====

tested on: human PTH1 receptor (Homo sapiens, UniProt Q03431)
Sequence (Q03431 27-593): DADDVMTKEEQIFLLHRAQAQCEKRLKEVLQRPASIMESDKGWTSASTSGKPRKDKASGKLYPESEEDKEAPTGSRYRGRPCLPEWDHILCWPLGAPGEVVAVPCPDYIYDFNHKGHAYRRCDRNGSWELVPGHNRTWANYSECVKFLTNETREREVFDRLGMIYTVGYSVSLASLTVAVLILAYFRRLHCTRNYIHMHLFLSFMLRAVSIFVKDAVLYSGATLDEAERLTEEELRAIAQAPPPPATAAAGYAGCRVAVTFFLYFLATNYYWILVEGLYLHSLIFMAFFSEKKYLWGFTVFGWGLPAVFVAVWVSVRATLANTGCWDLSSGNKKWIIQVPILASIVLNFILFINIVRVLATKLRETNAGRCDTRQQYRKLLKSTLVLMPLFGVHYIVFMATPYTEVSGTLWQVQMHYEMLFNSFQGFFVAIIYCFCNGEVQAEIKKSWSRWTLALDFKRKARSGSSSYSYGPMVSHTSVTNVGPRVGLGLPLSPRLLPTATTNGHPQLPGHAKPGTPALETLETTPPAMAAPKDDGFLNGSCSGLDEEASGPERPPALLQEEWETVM
experiment notes: In vitro cAMP signal activity in HKRK-B7 cells (LLC-PK1 cells overexpressing the human PTH1 receptor)
Type: cell-based
conditions used: HKRK-B7 cells; compound at 1×10^−3 M; cAMP produced as percentage of that produced by hPTH(1-34) at 100 nM
measured property: cAMP production activity (%)
Numbers only, in %.

Examples with their reported cAMP production activity (%) follow.
O=C1NC(C2CCCCC2)=NC12CCN(S(=O)(=O)CCc1ccc3c(ccn3CCOCCO)c1)CC2 [Compound 838]; 75
CC(=O)N(CCOCCF)c1cc(C)c(CCS(=O)(=O)N2CCC3(CC2)N=C(C2CCC(CCC(F)(F)F)CC2)NC3=O)c(C)c1 (stereo not shown) [Compound 766]; 88
CC(=O)Nc1ccc(CCS(=O)(=O)N2CCC3(CC2)N=C(C2CCC(/C=C/CF)CC2)NC3=O)c(C)c1 (stereo not shown) [Compound 1063]; 72
Cc1cc(C(=O)N2CCN(C(=O)N(C)C)CC2)ccc1CCS(=O)(=O)N1CCC2(CC1)N=C(c1cccc(C(F)(F)F)c1)NC2=O [Compound 382]; 36
O=C1NC(c2cccc(OC(F)(F)F)c2)=NC12CCN(S(=O)(=O)CCc1cccc3ncccc13)CC2 [Compound 654]; 50
O=C(CO)Nc1ccc(/C=C/S(=O)(=O)N2CCC3(CC2)N=C(C2CCCCC2)NC3=O)c(C(F)(F)F)c1 [Compound 196]; 66
Cc1cc(C(=O)N2CCC(C)(O)CC2)cc(C)c1/C=C/S(=O)(=O)N1CCC2(CC1)N=C(c1ccc(F)c(OCCCC(F)(F)F)c1)NC2=O [Compound 1218]; 90
Cc1cc(C(=O)N2CCC(C)(O)CC2)cc(C)c1/C=C/S(=O)(=O)N1CCC2(CC1)N=C(c1ccc(OC(F)(F)F)cc1)NC2=O [Compound 1198]; 88

Please give cAMP production activity (%), item by item, for the list that follows.
1. Cc1cc(N2C(=O)CNC2=O)ccc1CCS(=O)(=O)N1CCC2(CC1)N=C(C1CCC(CCCC(F)(F)F)CC1)NC2=O (stereo not shown) [Compound 944]
2. Cc1cc2ccc1CCS(=O)(=O)N1CCC3(CC1)N=C(NC3=O)c1cc(cc(C(F)(F)F)c1)OCCCCCOCCN(C)C2=O [Compound 1421]
3. O=C1NC(c2ccc(Cl)cc2Cl)=NC12CCN(S(=O)(=O)c1cccc(Cl)c1)CC2 [Compound 50]

Reply:
1: 71; 2: 49; 3: 26

Give cAMP production activity (%) for each of the items listed below.
1. Cc1cc(C(=O)N2CCC(O)(CF)CC2)cc(C)c1/C=C/S(=O)(=O)N1CCC2(CC1)N=C(c1ccc(OCC(F)(F)C(F)F)c(C(F)(F)F)c1)NC2=O [Compound 1251]
2. O=C1NC(c2cccc(OC(F)(F)F)c2)=NC12CCN(S(=O)(=O)CCc1cccc3c1ccn3C[C@H](O)CO)CC2 [Compound 746]

Reply:
[56, 120]
